# measured.on: Acetylcholine receptor subunit beta-like 2 (Drosophila melanogaster, UniProt P25162)
# Sequence (P25162 whole entry): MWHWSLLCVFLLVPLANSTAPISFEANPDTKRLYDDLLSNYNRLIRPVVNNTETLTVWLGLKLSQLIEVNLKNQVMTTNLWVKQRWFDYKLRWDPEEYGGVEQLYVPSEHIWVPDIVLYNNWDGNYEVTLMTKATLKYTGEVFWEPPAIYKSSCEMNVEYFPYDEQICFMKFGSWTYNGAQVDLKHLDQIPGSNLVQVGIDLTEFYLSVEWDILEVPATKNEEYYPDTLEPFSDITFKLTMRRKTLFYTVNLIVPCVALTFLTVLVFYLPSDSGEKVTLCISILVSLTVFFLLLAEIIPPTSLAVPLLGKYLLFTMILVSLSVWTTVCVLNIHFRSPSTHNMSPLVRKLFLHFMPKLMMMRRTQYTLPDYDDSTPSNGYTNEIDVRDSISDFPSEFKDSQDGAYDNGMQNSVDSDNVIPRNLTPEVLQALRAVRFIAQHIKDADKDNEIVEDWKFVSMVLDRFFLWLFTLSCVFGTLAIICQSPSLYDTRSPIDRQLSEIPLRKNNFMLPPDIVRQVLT
# run.description: Displacement of [3H]IMI from nicotinic acetylcholine receptor in Drosophila melanogaster head membrane after 90 min by filter binding assay
Please assign no whenever IC50 is at or above 0.01 µM, and yes whenever it is below.

1) O=[N+]([O-])/N=C1\NCOCN1Cc1cnc(Cl)s1    no

Enquiry: is_below(IC50, 0.01 µM) for `CCN(Cc1cnc(Cl)s1)/C(=C/[N+](=O)[O-])NC` ?
Return: no

Enquiry: is_below(IC50, 0.01 µM) for `CN1CN(C)/C(=N\[N+](=O)[O-])N(Cc2ccc(Cl)nc2)C1` ?
Return: no

Enquiry: is_below(IC50, 0.01 µM) for `O=[N+]([O-])C=C1NCCCS1` ?
Return: no

Enquiry: is_below(IC50, 0.01 µM) for `O=[N+]([O-])/N=C1\NCOCN1Cc1ccc(Cl)nc1` ?
Return: no

Enquiry: is_below(IC50, 0.01 µM) for `C/C(=N\C#N)N(C)Cc1cnc(Cl)s1` ?
Return: no

====

Items are presented alongside their recorded pIC50.
# measured.on: Acetylcholine receptor subunit beta-like 2 (Drosophila melanogaster, UniProt P25162)
# run.description: Displacement of [3H]IMI from nicotinic acetylcholine receptor in Drosophila melanogaster head membrane after 90 min by filter binding assay
# pIC50: negative log10 of molar concentration; output just the value

Worked cases, pIC50 given:
1) CN/C(=N\[N+](=O)[O-])NCc1cnc(Cl)s1 [CLOTHIANIDINE]    8.66
2) O=[N+]([O-])/N=C1\NCCN1Cc1cnc(Cl)s1 [IMIDACLOTHIZ]    7.77
3) N#C/N=C1\SCCN1Cc1cnc(Cl)s1    7.03

Now for another entry.
Entry `C/N=C(\NCc1ccc(Cl)nc1)N[N+](=O)[O-]` : pIC50 on Acetylcholine receptor subunit beta-like 2 (Drosophila melanogaster, UniProt P25162) = 8.13

====

# measured.on: Acetylcholine receptor subunit beta-like 2 (Drosophila melanogaster, UniProt P25162)
# run.description: Displacement of [3H]IMI from nicotinic acetylcholine receptor in Drosophila melanogaster head membrane after 90 min by filter binding assay
pIC50: −log10 of the molar value.
Use TRUE when the recorded pIC50 is no lower than 8; use FALSE when it is lower.

Worked set:
1. CN/C(=N/CC1CCOC1)N[N+](=O)[O-] (stereo unspecified)    FALSE
2. CN1CN(C)/C(=N\[N+](=O)[O-])N(Cc2cnc(Cl)s2)C1    FALSE

Enquiry: # check: pIC50 of `O=[N+]([O-])/N=C1\NCCN1Cc1ccc(Cl)nc1` is greater than or equal to 8
Return: TRUE

====

# measured.on: Acetylcholine receptor subunit beta-like 2 (Drosophila melanogaster)
# run.description: Displacement of [3H]IMI from nicotinic acetylcholine receptor in Drosophila melanogaster head membrane after 90 min by filter binding assay
metric: IC50 (nM)
Write down the numeric answer in nM and omit the unit.

Worked cases, IC50 given:
1) C/C(=N\C#N)N(C)Cc1ccc(Cl)nc1    8.3
2) N#C/N=C1\SCCN1Cc1ccc(Cl)nc1    7.5

Now for another entry.
IC50 in this record for `CCN(Cc1ccc(Cl)nc1)/C(=C/[N+](=O)[O-])NC` : 11

Ref: ChEMBL document CHEMBL3045369
